- Test system: MLKL phosphorylation in HT29-L23 human colorectal adenocarcinoma cells
- measurement.protocol: MLKL phosphorylation high-content assay
- Assay type: cell-based
- test.settings: Homo sapiens, 6 h, read-out: pMLKL IC50, HT29-L23 cells; necroptosis induced with TNFα, SMAC mimetic and Z-VAD, 6 h; maximal inhibition defined by Nec1s
result.type: log10(IC50) (log10 of the value in nM)
Annotation: log10 of IC50, nM basis.

molecule: Nc1nc2cc(-c3ccc(Cl)c(C(=O)NCC(F)(F)C(O)C4CCC(F)(F)CC4)c3F)ccn2n1 (stereo not shown)
log10(IC50): 0.77

# lookup: Cc1cc(F)c(-c2ccn3nc(N)nc3c2)c(F)c1C(=O)NCC[C@H](O)c1ccc(Cl)cc1 on MLKL phosphorylation in HT29-L23 human colorectal adenocarcinoma cells, log10(IC50) = 1.84

# lookup: Cc1c(C(=O)NCC[C@H](O)c2ccc(Cl)cc2)cc(-c2ccn3nc(N)nc3c2)c(F)c1F on MLKL phosphorylation in HT29-L23 human colorectal adenocarcinoma cells, log10(IC50) = 0.46

###

pIC50 values for the compounds below.
- Tested on: MLKL phosphorylation in HT29-L23 human colorectal adenocarcinoma cells
- measurement.protocol: MLKL phosphorylation high-content assay
- Format: cell-based
- test.settings: Homo sapiens, Table 22, compounds of the present invention; read-out: pMLKL IC50
Remember, pIC50 is on a log scale: it is -log10 of the molar concentration.

Study these solved cases before continuing.
compound: Cc1ccc(-c2ccn3nc(N)nc3c2)cc1C(=O)NCC[C@H](O)c1ccc(Cl)cc1
target.or.system: MLKL phosphorylation in HT29-L23 human colorectal adenocarcinoma cells
pIC50: 8.89

compound: Cc1ccc(-c2ccn3nc(N)nc3c2)c(F)c1C(=O)NCC(C)(O)C(=O)c1ccc(F)cc1 (centres unmarked)
target.or.system: MLKL phosphorylation in HT29-L23 human colorectal adenocarcinoma cells
pIC50: 8.08

compound: CC(CCNC(=O)c1cc(-c2ccn3nc(N)nc3c2)ccc1Cl)c1ccccc1 (centres unmarked)
target.or.system: MLKL phosphorylation in HT29-L23 human colorectal adenocarcinoma cells
pIC50: 7.96

compound: Cc1ccc(-c2ccn3nc(N)nc3c2)cc1C(=O)NCC[C@@H](O)c1ccc(Cl)cc1
target.or.system: MLKL phosphorylation in HT29-L23 human colorectal adenocarcinoma cells
pIC50: 8.72

Okay, now this compound:
# lookup: Cc1ccc(-c2ccn3nc(N)nc3c2)c(F)c1C(=O)NCCC(O)c1ccc(F)c(F)c1 (single isomer, unassigned) on MLKL phosphorylation in HT29-L23 human colorectal adenocarcinoma cells, pIC50 = 8.92

###

- target.or.system: His-GST-TVMV-hRIPK1(1-324) (Homo sapiens, UniProt Q13546)
- Construct: The coding region of human RIPK1(1-324) flanked by NdeI site at 5′ end; made in house; host or cells: Spodoptera frugiperda Sf9 insect cells (baculovirus, Bac-to-Bac)
- Sequence (Q13546 1-324): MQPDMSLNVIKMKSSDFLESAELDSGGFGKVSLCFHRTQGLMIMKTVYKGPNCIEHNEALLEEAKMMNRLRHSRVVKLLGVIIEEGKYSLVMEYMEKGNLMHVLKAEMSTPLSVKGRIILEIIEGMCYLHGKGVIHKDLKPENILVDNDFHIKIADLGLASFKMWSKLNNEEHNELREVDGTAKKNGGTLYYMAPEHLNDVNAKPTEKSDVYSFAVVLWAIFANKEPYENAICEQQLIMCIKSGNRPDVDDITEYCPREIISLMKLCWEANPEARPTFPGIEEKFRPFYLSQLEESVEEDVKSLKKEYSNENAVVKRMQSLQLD
- measurement.protocol: biochemical
- Type: binding
- test.settings: HTRF probe displacement, 1 h at rt; read-out: RIPK1 IC50
result.type: IC50 (nM)
Write down the numeric answer in nM and omit the unit.

Study these solved cases before continuing.
compound: Cc1cc(F)c(-c2ccn3nc(N)nc3c2)cc1C(=O)NCC(F)(F)C(C)(O)c1ccc(Cl)cc1 (single isomer, unassigned) [Example 226]
result.type: IC50
unit.string: nM
test.value: 8.3

compound: Nc1nc2cc(-c3ccc(Cl)c(C(=O)NCC(F)(F)Cc4ccc(F)cc4)c3F)ccn2n1
result.type: IC50
unit.string: nM
test.value: 1.8

compound: C#Cc1ccc([C@@H](O)CCNC(=O)c2c(C)ccc(-c3ccn4nc(N)nc4c3)c2F)cc1
result.type: IC50
unit.string: nM
test.value: 3.3

compound: Cc1ccc(-c2ccn3nc(N)nc3c2)c(F)c1C(=O)NCC(C)(F)C(O)c1ccc(F)cc1 (single isomer, unassigned) [Example 203]
result.type: IC50
unit.string: nM
test.value: 5.6

compound: Cc1ccc(-c2ccn3nc(N)nc3c2)c(F)c1C(=O)NCC(F)(F)[C@H](O)c1ccc(F)cc1 (single isomer, unassigned)
result.type: IC50
unit.string: nM
test.value: 2.4

compound: Cc1ccc(-c2ccn3nc(N)nc3c2)c(F)c1C(=O)NC(C)CC(O)c1ccc(F)cc1 (centres unmarked) [Example 35]
result.type: IC50
unit.string: nM
test.value: 2

compound: CCc1cc(F)c(-c2ccn3nc(N)nc3c2)cc1C(=O)NCC[C@H](O)c1ccc(Cl)cc1
result.type: IC50
unit.string: nM
test.value: 3.1

compound: Cc1ccc(-c2ccn3nc(N)nc3c2)c(F)c1C(=O)NCC(F)(F)C(C)(O)c1ccc(F)cc1 (racemic)
result.type: IC50
unit.string: nM
test.value: 8.9

Looking up Cc1c(C(=O)NCC[C@H](O)c2ccc(Cl)cc2)cc(-c2ccn3nc(N)nc3c2)c(F)c1F , I see its IC50 listed as 5.5

Looking up Cc1ccc(-c2ccn3nc(N)nc3c2)c(F)c1C(=O)NCC(F)(F)C(O)c1ccc(Cl)cc1 (centres unmarked) , I see its IC50 listed as 2.2

Looking up Cc1ccc(-c2ccn3nc(N)nc3c2)c(F)c1C(=O)NCCC(O)c1cccc(F)c1 (single isomer, unassigned) , I see its IC50 listed as 12

Looking up Cc1cccc(C(O)C(F)(F)CNC(=O)c2c(Cl)ccc(-c3ccn4nc(N)nc4c3)c2F)c1 (centres unmarked) [Example 175] , I see its IC50 listed as 2.7

Looking up Cc1ccc(-c2ccn3nc(N)nc3c2C)c(F)c1C(=O)NCC[C@H](O)c1ccc(Cl)cc1 [compound 134] , I see its IC50 listed as 2.9
